Test system: THP-1 cells
Measured quantity: GI50 (nM)

• CCc1nn(C2CC2)c2c1[C@@H](c1ccc(Cl)cc1)N(c1cc(C)c3nnc(C)n3c1)C2=O = 8.18
• COc1ncc(-n2nc3c(c2C)C(c2ccc(Cl)cc2)N(c2cc(C)c(=O)n(C)c2)C3=O)c(OC)n1 (stereo not shown) = 70.2
• Cc1cc(N2C(=O)c3nn(C(=O)N(C)C)c(C)c3[C@H]2c2ccc(Cl)cc2)cn2c(C)nnc12 = 101
• Cc1nn(C2CC2)c2c1C(c1ccc(Cl)cc1)N(c1cc(N(C)C(=O)OC(C)(C)C)c3nnc(C)n3n1)C2=O (stereo not shown) = 1280
• Cc1cc(N2C(=O)c3nn(C4CN(C)C4)c(C)c3C2c2ccc(Cl)cc2)cn2c(C)nnc12 (stereo not shown) = 142

I. Cc1c2c(nn1C1CC1)C(=O)N(c1cc(Cl)c(=O)n(C)c1)[C@@H]2c1ccc(Cl)cc1
II. COc1ncccc1-n1nc(C)c2c1C(=O)N(c1cc(C)c3nnc(C)n3n1)C2c1ccc(Cl)cc1 (stereo not shown)
stdin: Parameter check: reported GI50 is higher for which label, I or II ? State the label of the item chosen.
stdout: I

====

MV-4-11 cells data, read-out GI50
Measured quantity: GI50 (nM)

Field: example entries. Status: answers known.
- COc1ncc(-n2nc3c(c2C(C)C)[C@@H](c2ccc(Cl)cc2)N(c2cc(C)c4onc(C)c4c2)C3=O)c(OC)n1: 58.4
- CCc1nn(C)c2c1C(c1ccc(Cl)cc1)N(c1cc(OC)c3nnc(C)n3c1)C2=O (centres unmarked): 102
- CCc1nn(C2CC2)c2c1C(c1ccc(Cl)cc1)N(c1cc(C)c3nnc(C)n3c1)C2=O (centres unmarked): 9.02

P. CCOc1c2c(nn1C)C(=O)N(c1cc(C)c(=O)n(C)c1)C2c1ccc(Cl)cc1 (centres unmarked)
Q. Cc1cc(N2C(=O)c3c(c(C4CC4)nn3C)C2c2ccc(Cl)cc2)cn2c(C)nnc12 (racemic)
R. Cc1nn(C2CC2)c2c1[C@@H](c1ccc(Cl)cc1)N(c1cc(C)c3nnc(C)n3c1)C2=O
S. CCn1nc2c(c1C)C(c1ccc(Cl)cc1)N(c1cc(C)c3nnc(C)n3c1)C2=O (centres unmarked)
T. Cc1nn(-c2ccnn2C)c2c1C(c1ccc(Cl)cc1)N(c1cc(C)c(=O)n(C)c1)C2=O (racemic)
stdin: Please put the entries in order of rising GI50. Reply: labels, ordered per the request.
stdout: R, Q, S, P, T
(R: 6.15 nM, Q: 14.5 nM, S: 22.4 nM, P: 53.2 nM, T: 95.8 nM)

====

Below are GI50 values measured for K-562 cells.
Measured quantity: GI50 (µM)

Worked examples follow.
* CC(=O)N1CC(n2nc(C)c3c2C(=O)N(c2cc(C)c(=O)n(C)c2)C3c2ccc(Cl)cc2)C1 (stereo not shown) [Example 153] | 0.925
* COc1c2c(nn1C)C(=O)N(c1cc(C)c(=O)n(C)c1)C2c1ccc(Cl)cc1 (stereo not shown) [Example 77] | 0.569

P. Cc1cc(N2C(=O)c3c(c(CO)nn3C3CC3)C2c2ccc(Cl)cc2)cn(C)c1=O (stereo not shown) [Example 133]
Q. Cc1nn(C2CC2)c2c1C(c1ccc(OC(F)(F)F)cc1)N(c1cc(C)c(=O)n(C)c1)C2=O (stereo not shown) [Example 95]
stdin: Could you determine which record has the numerically smaller GI50? Candidates: P and Q Record your answer as the label of the chosen record.
stdout: P

Reference source: patent US20160095843A1
